test system: P. aeruginosa MP-3; test: Broth dilution MIC determination (CLSI), P. aeruginosa MP-3; format: cell-based; details: Pseudomonas aeruginosa, MP3; strain MP-3, broth dilution
Measured MIC by item

1. CO[C@]1(C)C[C@@H](C)CN(C)[C@@H]([C@H]2CCN(C)C2)COC(=O)C(C)(C)C(=O)[C@H](C)[C@H]1O[C@@H]1O[C@H](C)C[C@H](N(C)C)[C@H]1O :: > 32 µg/mL

Test item CO[C@]1(C)C[C@@H](C)CN(C)[C@@H]([C@H]2CCNC2)COC(=O)C(C)(C)C(=O)[C@H](C)[C@H]1O[C@@H]1O[C@H](C)C[C@H](N(C)C)[C@H]1O ; P. aeruginosa MP-3; reported MIC was > 32 µg/mL

Test item CO[C@]1(C)C[C@@H](C)CN(C)[C@@H](C2CN(C)C2)COC(=O)C(C)(C)C(=O)[C@H](C)[C@H]1O[C@@H]1O[C@H](C)C[C@H](N(C)C)[C@H]1O ; P. aeruginosa MP-3; reported MIC was > 32 µg/mL

* * *

tested on: K. pneumoniae MP-546; assay: Broth dilution MIC determination (CLSI), K. pneumoniae MP-546; format: cell-based; conditions: Klebsiella pneumoniae, MP546; strain MP-546, broth dilution
PROPERTY: MIC

1. CO[C@]1(C)C[C@@H](C)CN(C)[C@H](C2CN(C(=O)CC(C)(C)CN(C)C)C2)COC(=O)C(C)(C)C(=O)[C@H](C)[C@H]1O[C@@H]1O[C@H](C)C[C@H](N(C)C)[C@H]1O :: 4 to 32 µg/mL
2. CO[C@]1(C)C[C@@H](C)CN(C)[C@H](C2CN(CC(C)C)C2)COC(=O)C(C)(C)C(=O)[C@H](C)[C@H]1O[C@@H]1O[C@H](C)C[C@H](N(C)C)[C@H]1O :: < 4 µg/mL

Read the next record carefully.
# MIC (molecule: CO[C@]1(C)C[C@@H](C)CN(C)[C@H]([C@H]2C[C@@H](N(C)CC3CC3)C2)COC(=O)C(C)(C)C(=O)[C@H](C)[C@H]1O[C@@H]1O[C@H](C)C[C@H](N(C)C)[C@H]1O ) is 4 to 32 µg/mL

* * *

Measured MIC by item
test system: K. pneumoniae MP-546; assay: Broth dilution MIC determination (CLSI), K. pneumoniae MP-546; format: cell-based; conditions: Klebsiella pneumoniae, MP546; strain MP-546, broth dilution

1) CO[C@]1(C)C[C@@H](C)CN(C)[C@H](c2ccc(-c3cccc(N)c3)cc2)COC(=O)C(C)(C)C(=O)[C@H](C)[C@H]1O[C@@H]1O[C@H](C)C[C@H](N(C)C)[C@H]1O [Compound 93] :: > 32 µg/mL
2) CCN1CCC([C@H]2COC(=O)C(C)(C)C(=O)[C@H](C)[C@@H](O[C@@H]3O[C@H](C)C[C@H](N(C)C)[C@H]3O)[C@](C)(OC)C[C@@H](C)CN2C)CC1 [Compound 175] :: < 4 µg/mL
3) CO[C@]1(C)C[C@@H](C)CN(C)[C@H]([C@H]2C[C@H](N(C)CC(C)C)C2)COC(=O)C(C)(C)C(=O)[C@H](C)[C@H]1O[C@@H]1O[C@H](C)C[C@H](N(C)C)[C@H]1O [Compound 131] :: < 4 µg/mL
4) CCC[N+]1(C)CC=C([C@H]2[C@@H](C)OC(=O)C(C)(C)C(=O)[C@H](C)[C@@H](O[C@@H]3O[C@H](C)C[C@H](N(C)C)[C@H]3O)[C@](C)(OC)C[C@@H](C)CN2C)CC1 (some centres unmarked) [Compound 4] :: > 32 µg/mL

Read the next record carefully.
# MIC (molecule: CO[C@]1(C)C[C@@H](C)CN(C)[C@H](C2CN(C(=O)CN3CCCC3)C2)COC(=O)C(C)(C)C(=O)[C@H](C)[C@H]1O[C@@H]1O[C@H](C)C[C@H](N(C)C)[C@H]1O [Compound 138] ) is < 4 µg/mL

These entries and their values trace back to patent US20220177508A1.
